- Assay info: Cmax in Balb/c mouse lung at 30 mg/kg, po
- Format: ADME, organism-based
- Parameters: dose 30 mg/kg, route oral
Experimental endpoint: Cmax (ng/g)
Express the result in ng/g but write the number alone.

Exercise: Provide Cmax value for the following molecule: `CC[C@]1(C)C[C@@H](OC(=O)CSC(C)(C)CNC(=O)[C@H](N)CC(C)C)[C@]2(C)[C@H](C)CC[C@]3(CC[C@@H](O)[C@H]32)[C@@H](C)[C@@H]1O`
Solution: 6070

---

- Assay info: Half life in Balb/c mouse at 30 mg/kg, po
- Assay type: ADME, organism-based
- Condition set: in vivo
Experimental endpoint: half-life (h)
Write the value in h as a bare number.

Exercise: Answer with reported half-life of `CC[C@]1(C)C[C@@H](OC(=O)CSC(C)(C)CNC(=O)[C@H](N)CC(C)C)[C@]2(C)[C@H](C)CC[C@]3(CC[C@@H](O)[C@H]32)[C@@H](C)[C@@H]1O`
Solution: 4.02
